- target under test: Human IP6K1 (Homo sapiens, UniProt Q92551)
- Construct: GST (N, cleaved yes); made in house; host or cells: C43 E. coli, pGEX-6P-2
- Sequence (Q92551 whole entry): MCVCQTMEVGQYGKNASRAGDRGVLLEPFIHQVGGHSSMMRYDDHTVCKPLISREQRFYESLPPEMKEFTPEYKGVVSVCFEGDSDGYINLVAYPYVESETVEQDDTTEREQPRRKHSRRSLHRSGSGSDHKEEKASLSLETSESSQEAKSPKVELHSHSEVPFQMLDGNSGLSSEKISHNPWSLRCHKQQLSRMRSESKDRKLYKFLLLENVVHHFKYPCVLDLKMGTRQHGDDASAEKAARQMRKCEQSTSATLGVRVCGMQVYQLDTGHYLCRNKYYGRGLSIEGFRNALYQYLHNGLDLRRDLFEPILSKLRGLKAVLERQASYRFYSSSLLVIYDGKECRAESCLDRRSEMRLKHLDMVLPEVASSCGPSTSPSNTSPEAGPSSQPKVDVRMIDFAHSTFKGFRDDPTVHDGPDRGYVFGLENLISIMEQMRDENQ
- assay details: IP6K1 high-throughput screen of the Sigma LOPAC (ADP-Glo Max, single point);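 further: final compound concentration 10µM in 5% DMSO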
- Assay type: biochemical
- condition description: LOPAC single-point screen; Z-score relative to plate average and StDev
Structures can show the parent of a compound that is named as a salt.
Z-score vs -0.8: less than gives 1 (yes); not less than gives 0 (no).

>>> print(df.to_string())
                                    compound  class_assignment
 0  COc1[nH]c2ccc(F)cc2c1C(=O)OCC1CCN(CCNS(C)(=O)=O)CC1.NS(=O)(=O)O [GR 125487 sulfamate salt]            0 (no)
 1   Cn1cnc([N+](=O)[O-])c1Sc1ncnc2nc[nH]c12           1 (yes)
 2  CCn1cc(C(=O)O)c(=O)c2cc(F)c(N3CCNC(C)C3)c(F)c21 (stereo not drawn) [Lomefloxacin hydrochloride]            0 (no)
 3  NCCc1c[nH]c2ccc(C(N)=O)cc12.O=C(O)/C=C\C(=O)O [5-Carboxamidotryptamine maleate]            0 (no)
 4  Nc1c(S(=O)(=O)O)cc(Nc2ccc(Nc3nc(Cl)nc(Nc4cccc(S(=O)(=O)O)c4)n3)c(S(=O)(=O)O)c2)c2c1C(=O)c1ccccc1C2=O           1 (yes)
 5        Cl.NCCS [Cysteamine hydrochloride]            0 (no)
 6  CC(C(=O)O)c1ccc(CC2CCCC2=O)cc1 (stereo not drawn)           1 (yes)
 7  N#CC(C#N)=C(N)/C(C#N)=C/c1cc(O)c(O)c(O)c1           1 (yes)
 8  C[C@@]1(C2CCCC2)Cc2cc(OCC(=O)O)c(Cl)c(Cl)c2C1=O [R(+)-IAA-94]           1 (yes)
 9  CC1=C(C)C(=O)C(CCCCC#CCCCC#CCO)=C(C)C1=O           1 (yes)
10                NC(=O)c1ccccc1 [Benzamide]            0 (no)
11  NC/C=C\C(=O)O [cis-4-Aminocrotonic acid]            0 (no)
12  CCCCCCCC/C=C\CCCCCCCC(=O)NCCc1ccc(O)c(O)c1            0 (no)
13  CC(CN(C)C)CN1c2ccccc2CCc2ccccc21 (stereo not drawn) [Trimipramine maleate]            0 (no)
14  C[N+](C)(C)CCCCCCCCCC[N+](C)(C)C.[Br-].[Br-] [Decamethonium dibromide]            0 (no)
15  CN1CCC(=C2c3ccccc3CC(=O)c3sccc32)CC1 [Ketotifen fumarate]            0 (no)
16  C#CCN[C@H](C)Cc1ccccc1.Cl [R-(-)-Desmethyldeprenyl hydrochloride]            0 (no)

---

Examples of compounds with documented Raw Signal follow.
- target under test: Human IP6K1 (Homo sapiens)
- Construct: GST (N, cleaved yes); made in house; host or cells: C43 E. coli, pGEX-6P-2
- assay details: IP6K1 high-throughput screen of the Sigma LOPAC (ADP-Glo Max, single point);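 further: final compound concentration 10µM in 5% DMSO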
- Format: biochemical
- condition description: LOPAC single-point screen, ADP-Glo Max raw signal per well
Counter-ions that a name gives are not always drawn.
test readout: Raw Signal

compound	readout value
CN1[C@@H]2CC[C@H]1C[C@@H](OC(c1ccccc1)c1ccccc1N)C2 (stereo partly drawn)	58792
COc1cc(C=C(C#N)C#N)cc(O)c1O	55934
CN(C)C(=O)Oc1ccc[n+](C)c1 [Pyridostigmine bromide]	56672
O=c1c2ccccc2nc2n1CCc1c-2[nH]c2ccccc12	54118
CC(=O)O[C@H]1C[C@@]2(C)[C@@H](C[C@@H](O)[C@H]3[C@@]4(C)CC[C@@H](O)[C@@H](C)[C@@H]4CC[C@@]32C)/C1=C(\CCC=C(C)C)C(=O)[O-].[Na+] [Fusidic acid sodium]	56091
Cn1cc(C(=O)OCC2CCN(CCNS(C)(=O)=O)CC2)c2ccccc21	56278
CC[C@H](C)[C@H]1O[C@]2(CC[C@@H]1C)C[C@@H]1C[C@@H](C/C=C(\C)[C@@H](O[C@H]3C[C@H](OC)[C@@H](O[C@H]4C[C@H](OC)[C@@H](O)[C@H](C)O4)[C@H](C)O3)[C@@H](C)/C=C/C=C3\CO[C@@H]4[C@H](O)C(C)=C[C@@H](C(=O)O1)[C@]34O)O2	51728
CC(=O)O.NC(=NCCC[C@H](N)C(=O)O)NO [NG-Hydroxy-L-arginine acetate]	53960
COc1nc(C)nc(Cl)c1NC1=NCCN1.Cl [Moxonidine hydrochloride]	52362
C[C@@H]1OC[C@H](C[N+](C)(C)C)O1.[I-] [(+)-cis-Dioxolane iodide]	55108
OCc1ccc(-c2nn(Cc3ccccc3)c3ccccc23)o1	55059
Cc1nnc2ccc(-c3cccc(C(F)(F)F)c3)nn12	54310
OCCN1CCN(CC/C=C2/c3ccccc3Sc3ccc(C(F)(F)F)cc32)CC1 [cis-(Z)-Flupenthixol dihydrochloride]	56412
CN1CCN(C2=Nc3ccccc3Oc3ccc(Cl)cc32)CC1 [Loxapine succinate]	54983
CC(=O)[C@H]1CC[C@H]2[C@@H]3CCC4=CC(=O)CC[C@]4(C)[C@H]3CC[C@]12C	53663
